study system: T1, human monomeric EGFR (EGFR.mmh) (human, UniProt P00533 25-647)
T1 construct: Soluble monomeric EGFR construct
test details: SPR 37C, mAb captured by anti-human Fc, EGFR.mmh analyte
quantity: kon (M⁻¹ s⁻¹)
Report as a plain number; the unit M⁻¹ s⁻¹ is understood.

# annotated cases, reported kon shown
H1H169P (antibody, human IgG1, V domains shown, Human IgG1 Fc (H1H)) VH: EVQLVESGGGLVQPGGSLRLSCAASRFTFSTYWMSWVRQAPGKGLEWVAKIKQDGSEKYYLDSVKDRFTISRDNAKNSLYLQMNSLRAEDTAVYYCASSITWYDYYYGMDVWGHGTTVTVSS VL: EIVLTQSPDFQSVTPKEKVTITCRASQSIGSNLHWYQQKPDQSPNLLIKFASQSFSGVPSRFSGSGSGTDFTLTINSLEAEDAATYYCHQTNFLPHTFGGGTKVEIK : 665000
H1H102N (antibody, human IgG1, V domains shown, Tested in human IgG1 Fc format (H1H); also called H1M102N) VH: QVQLQESGPGLVQPSQTLSLTCTVSGGSVSSGDYYWSWIRQHPGKGLEWIGHIYYSGITYYNPSLESRVTITLDTSKNQFSLNLRSVTAADTAVHYCARTAIIGTMDNWGRGTLVTVSS VL: EIVMTQSPATLSVSPGERATLSCRASQSVSSNLAWYQQKPGQAPRLLIYDASTRATGFPARFSGSGSGTEFTLTISSLQSEDFAVYYCQQYNTWWTFGQGTKVEIK : 166000
H1H143P (antibody, human IgG1, V domains shown, Human IgG1 Fc (H1H)) VH: QVQLQESGPGLVMPSQTLSLTCTVSGGSINSGDYYWNWIRQHPGKGLEWIGYIYYSEISYHNPSLKSRVTTSIDTSTNQFSLKLSSVTAADTAVYYCARDRVELRAFDIWGQGTMVTVSS VL: DIQMTQSPSSLSASVGDRVTITCQASQDISNYLNWYQQKPGKAPKLLIYDASNLETGVPSRFSGSGSGTDFTFTISSLQPEDIATYYCQHYDSLPLTFGQGTRLEIK : 127000
H1H171P (antibody, human IgG1, V domains shown, Human IgG1 Fc (H1H)) VH: QVQLVESGGGVVQPGRSLRLSCAASGFTFSIYGMNWVRQGPGKGLDWVAVISDDGSNKDYVDSVRGRFTISRDNSKNTLYLQMNSLSAEDTAVYYCAKDRITGTHYYGMDVWGQGTTVTVSS VL: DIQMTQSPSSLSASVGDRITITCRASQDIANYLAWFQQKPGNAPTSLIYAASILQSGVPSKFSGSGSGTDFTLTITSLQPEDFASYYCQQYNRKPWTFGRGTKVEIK : 79400
H1H141P (antibody, human IgG1, V domains shown, Human IgG1 Fc (H1H)) VH: QVQLQESGPGLVKPSQTLSLTCTVSGGSISSGDYYWNWIRQYPGKGLELIGYIYYSGITYYNPSLKSRLTISLDTSKNQFSLKLSSVTAADTAVYYCARDRVELRAFDIWGQGTMVTVSS VL: DIQMTQSPSSLSASVGDRVTITCQASQDISNYLNWYQQKPGKAPKLLINDASNLETGVPSRFSGSGSGTDFTFTISSLQPEDIATYYCQHYDSLPLTFGQGTRLEIK : 396000
H1H0085N (antibody, V domains shown, Tested in human IgG1 Fc format (H1H prefix); first obtained as H1M (mouse IgG1 Fc) from a hybridoma; also called H1M085N; H1H085N) VH: EVQLVESGGGLVQPGRSLRLSCAASGFTFDDYAMHWVRQAPGKGLEWVSGINWNSDKIAYADSVKGRFTISRDNAENSLFLQMNSLRPEDTALYYCVKRGDFWTEYYDYWGQGTLVTVSS VL: DIVMTQSPLSLPVTPGEPASISCRSSQSLLHSNGYNYLDWYLQKPGQSPHLLIYLVSTRASGVPDRFSGSGSGTDFTLKISRVEAEDVGVYYCIQALQTPWTFGQGTKVEIK : 119000
H1H089N (antibody, human IgG1, V domains shown, Tested in human IgG1 Fc format (H1H); also called H1M089N) VH: EVQLVESGGGLVQPGRSLRLSCAASGFTFDDYAMHWVRQAPGKGLEWVSGINWNSDKIAYADSVKGRFTISRDNAENSLFLQMNSLRPEDTALYYCVKRGDFWTDYYDYWGQGTLVTVSS VL: DIVMTQSPLSLPVTPGEPASISCRSSQSLLHSNGHNYLDWYLQKPGQSPHLLIYLVSNRASGVPDRFSGSGSGTDFTLKISRVEAEDVGVYYCIQALQTPWTFGQGTKVEIK : 313000
H1H151P (antibody, human IgG1, V domains shown, Human IgG1 Fc (H1H)) VH: QVQLQESGPGLVNPSQTLSLTCTVSGGSINSGDYYWSWVRQHPGKGLEWIGYIYYSGSTYYNPSLKSRVTISVDTSKNQFSLKLSSVTVADTAVYYCARVGYSKGYFDSWGQGTLVTVSS VL: DIQMTQSPSTLSASVGDRVTITCRASESISSWLAWYQQKPGKAPKVLIYDASSLESGVPSRFSGSGSGTEYTLTISSLQPDDFASYYCQQYKSYWTFGQGTKVEIK : 134000

What value of kon has been recorded for this entry: H1H163P (antibody, human IgG1, V domains shown, Human IgG1 Fc (H1H)) VH: QVQLVESGGGVVQPGRSLRLSCAASGFTFSNYGMHWVRQAPGKGLEWVTLIEHDGSNKNYVDSVKGRFTISRDNSKNTLYLQMNSLRVEDTAVYYCAKDRITGTPWYGMDVWGQGTTVTVSS VL: DIQMTQSPSSLSASVGDRVTITCRASQDIADYLAWFQQKPGKAPKSLIFAASSLESWVPLKFSGSGSGTDFTLTISSLQPEDFATYYCQQYNRFPITFGQGTRLEIK
511000

Also H1H142P (antibody, human IgG1, V domains shown, Human IgG1 Fc (H1H)) VH: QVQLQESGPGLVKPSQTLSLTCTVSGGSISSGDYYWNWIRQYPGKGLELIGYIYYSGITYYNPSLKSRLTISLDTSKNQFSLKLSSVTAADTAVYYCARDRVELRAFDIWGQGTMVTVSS VL: DIQMTQSPSSLSASIGDRITISCQASQDINNYLNWYQQKPGKAPKLLIYDASNLETGIPSRFSGSGSGTDFTFTISGLQPEDIATYYCQHYDSLPLTFGQGTRLEIK ?
158000

Also H1H103N (antibody, human IgG1, V domains shown, Tested in human IgG1 Fc format (H1H); also called H1M103N) VH: EVQLVESGGGLVQPGGSLRLSCAASGFTFSSYDMHWVRQTTGKGLEWVSGIGTAGDTYYPGSVKGRFTISREDAKNSLYLQMNSLRAGDTAVYYCARVGYDWNFVAFDYWGQGTLVTVSS VL: DIVMTQSPLSLPVTPGEPASISCRSSQSLLHSNGYNYLDWYLQKPGQSPQLLIHLVSIRASGVPDRFSGSGSGTDFTLKISRVEAEDVGIYYCMQALQTPWTFGQGTKVEIK ?
100000

// data source = patent US20180036405A1
